Provenance of the data: patent US20120083471A1

# targetEntity: mtGPAT1 (Mus musculus, UniProt Q61586)
# Construct: from tissue; host or cells: mitochondrial preparation
# Sequence (Q61586 1-827): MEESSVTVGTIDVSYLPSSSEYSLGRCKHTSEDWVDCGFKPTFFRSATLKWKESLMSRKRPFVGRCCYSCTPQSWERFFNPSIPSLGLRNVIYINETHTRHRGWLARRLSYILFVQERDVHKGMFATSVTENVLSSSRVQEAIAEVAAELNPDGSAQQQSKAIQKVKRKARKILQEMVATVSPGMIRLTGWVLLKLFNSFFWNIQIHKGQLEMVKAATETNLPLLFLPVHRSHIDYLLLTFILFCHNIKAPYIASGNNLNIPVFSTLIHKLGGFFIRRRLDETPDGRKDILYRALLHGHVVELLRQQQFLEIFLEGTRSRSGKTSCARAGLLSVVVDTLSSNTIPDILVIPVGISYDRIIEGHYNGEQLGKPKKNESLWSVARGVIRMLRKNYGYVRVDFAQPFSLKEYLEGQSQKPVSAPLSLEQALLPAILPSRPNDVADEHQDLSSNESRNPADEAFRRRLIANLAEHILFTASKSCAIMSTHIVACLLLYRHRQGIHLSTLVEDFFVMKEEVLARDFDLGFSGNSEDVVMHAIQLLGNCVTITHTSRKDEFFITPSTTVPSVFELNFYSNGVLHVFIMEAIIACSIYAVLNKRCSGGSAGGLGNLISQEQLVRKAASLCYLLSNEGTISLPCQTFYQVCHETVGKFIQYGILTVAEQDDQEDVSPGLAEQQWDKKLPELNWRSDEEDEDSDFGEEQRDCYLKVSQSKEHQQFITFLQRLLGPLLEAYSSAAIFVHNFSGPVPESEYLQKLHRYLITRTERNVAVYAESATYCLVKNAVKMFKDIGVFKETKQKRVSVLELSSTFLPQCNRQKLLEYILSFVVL
# test: In vitro mtGPAT inhibition: acylation of 14C-glycerol 3-phosphate with palmitoyl-CoA, scintillation counting
# Format: biochemical
# experimentalContext: compounds 4a-t and 7a-t; read-out: GPAT IC50
pIC50: −log10 of the molar value.

{"cpdSmiles": "CCCCCCCCS(=O)(=O)Nc1cc(-c2ccc(-c3ccccc3)cc2)ccc1C(=O)O", "pIC50": 4.76}
{"cpdSmiles": "CCCCCCCCS(=O)(=O)Nc1cc(-c2cccc(C(C)=O)c2)ccc1C(=O)O", "pIC50": 4.53}
{"cpdSmiles": "CCCCCCCCS(=O)(=O)Nc1ccc(-c2ccc(O)cc2)cc1C(=O)O", "pIC50": 4.22}
{"cpdSmiles": "CCCCCCCCS(=O)(=O)Nc1ccc(-c2ccccc2Cl)cc1C(=O)O", "pIC50": 4.84}
{"cpdSmiles": "CCCCCCCCS(=O)(=O)Nc1ccc(-c2ccccc2-c2ccccc2)cc1C(=O)O", "pIC50": 4.87}
{"cpdSmiles": "CCCCCCCCS(=O)(=O)Nc1cc(-c2ccc(C#N)cc2)ccc1C(=O)O", "pIC50": 4.70}

====

# targetEntity: mtGPAT1 (Mus musculus, UniProt Q61586)
# Construct: from tissue; host or cells: mitochondrial preparation
# test: In vitro mtGPAT inhibition: acylation of 14C-glycerol 3-phosphate with palmitoyl-CoA, scintillation counting
# Type: biochemical
# experimentalContext: Table 2, sulfonamides 15a-i and 17a-f; triplicate; read-out: IC50 (μM) ± SD, In Vitro Anti-mtGPAT1 Activity
recordedEndpoint: IC50 (µM)

{"molecule": "CCCCCCCCCS(=O)(=O)Nc1ccccc1C(=O)O [Compound 15g, 2-(Nonylsulfonamido)benzoic acid]", "scaleUnit": "µM", "result": 8.1}
{"molecule": "O=C(O)c1cccc(NS(=O)(=O)c2ccc(Cl)cc2)c1 [Compound 15f]", "scaleUnit": "µM", "result": 23.6}
{"molecule": "O=C(O)c1ccccc1NS(=O)(=O)c1ccccc1 [Compound 15h, 2-(Phenylsulfonamido)benzoic acid]", "scaleUnit": "µM", "result": 40.5}
{"molecule": "O=C(O)c1ccccc1NS(=O)(=O)Cc1ccccc1 [Compound 17e, 2-(Phenylmethylsulfonamido)benzoic acid]", "scaleUnit": "µM", "result": 40.7}
{"molecule": "CCCCCCCCCS(=O)(=O)Nc1ccc(C(=O)O)cc1 [Compound 15a, 4-(Nonylsulfonamido)benzoic acid]", "scaleUnit": "µM", "result": 29.1}
{"molecule": "O=C(O)c1cccc(NS(=O)(=O)c2ccccc2)c1 [Compound 15e, 3-(Phenylsulfonamido)benzoic acid]", "scaleUnit": "µM", "result": 38.3}
{"molecule": "O=C(O)c1ccc(NS(=O)(=O)c2ccc(Cl)cc2)cc1 [Compound 15c]", "scaleUnit": "µM", "result": 33.7}
